Tested target: VHL (Homo sapiens)
Sequence (P40337 whole entry): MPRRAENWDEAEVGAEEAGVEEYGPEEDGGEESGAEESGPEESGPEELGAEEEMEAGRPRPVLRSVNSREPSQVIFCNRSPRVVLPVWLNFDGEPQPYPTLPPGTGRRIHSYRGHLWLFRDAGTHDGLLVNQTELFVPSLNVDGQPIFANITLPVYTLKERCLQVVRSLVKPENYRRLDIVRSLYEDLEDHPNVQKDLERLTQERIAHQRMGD
Test name: cell-based
Design: full-length, NanoLuc fusion (Promega N2741); species or system HEK293T; NanoBRET VHL tracer displacement in permeabilized cells, NanoLuc-VHL fusion
Condition info: permeabilized cells; read-out: VHL permeabilized (IC50±sd)/µM
Parameter measured: IC50 (µM)

Before answering, review these 3 worked examples.
CC(=O)N[C@H](C(=O)N1C[C@H](O)C[C@H]1C(=O)NCc1ccc(-c2scnc2C)cc1OCCOCCOCCOCCOCCC(=O)N1CCN(c2ccc(Nc3ncc(Cl)c(Nc4ccccc4C(N)=O)n3)cc2)CC1)C(C)(C)C; 1.4
CC(=O)N[C@H](C(=O)N1C[C@H](O)C[C@H]1C(=O)NCc1ccc(-c2scnc2C)cc1OCCOCCOCCOCCNC(=O)c1cc(Nc2cc(C3CC3)[nH]n2)nc(Nc2ccc(CC#N)cc2)n1)C(C)(C)C; 0.972
Cc1ncsc1-c1ccc(CNC(=O)[C@@H]2C[C@@H](O)CN2C(=O)[C@@H](NC(=O)CCOCCOCCOCCN2CCN(c3cc(Nc4cc(C5CC5)[nH]n4)nc(Nc4ccc(CC#N)cc4)n3)CC2)C(C)(C)C)cc1; 1.13

[a] Cc1ncsc1-c1ccc(CNC(=O)[C@@H]2C[C@@H](O)CN2C(=O)[C@@H](NC(=O)CCCCCCN2CCN(c3ccc(Nc4ncc(Cl)c(Nc5ccccc5C(N)=O)n4)cc3)CC2)C(C)(C)C)cc1
[b] Cc1ncsc1-c1ccc(CNC(=O)[C@@H]2C[C@@H](O)CN2C(=O)[C@@H](NC(=O)CCOCCOCCNC(=O)c2cc(Nc3cc(C4CC4)[nH]n3)nc(Nc3ccc(CC#N)cc3)n2)C(C)(C)C)cc1
Select one. Lower IC50: a or b Provide the label of your selected option as the answer. b

====

Test system: kinase protein levels in MCF-7 cells
Test name: TMT-labeled quantitative proteomics
Assay type: cell-based, human
Condition info: protein NBPF19;NBPF15;NBPF8;NBPF10;NBPF3;NBPF11;NBPF26;NBPF14;NBPF1;NBPF12; MCF7; 1 µM; set5
Parameter measured: log2FC (compound/DMSO)
No unit in the answer, only the number.

// worked examples, log2FC (compound/DMSO) included
Cc1ncsc1-c1ccc(CNC(=O)[C@@H]2C[C@@H](O)CN2C(=O)[C@@H](NC(=O)CCOCCOCCOCCOCCOCCOCCN2CCN(c3cc(Nc4cc(C5CC5)[nH]n4)nc(Nc4ccc(CC#N)cc4)n3)CC2)C(C)(C)C)cc1 [4-b]; 0.1563
Cc1ncsc1-c1ccc(CNC(=O)[C@@H]2C[C@@H](O)CN2C(=O)[C@@H](NC(=O)CCCCCCN2CCN(c3cc(Nc4cc(C5CC5)[nH]n4)nc(Nc4ccc(CC#N)cc4)n3)CC2)C(C)(C)C)cc1 [4-c]; -0.3485
Cc1ncsc1-c1ccc(CNC(=O)[C@@H]2C[C@@H](O)CN2C(=O)[C@@H](NC(=O)CCOCCOCCN2CCN(c3ccc(Nc4ncc(Cl)c(Nc5ccccc5C(N)=O)n4)cc3)CC2)C(C)(C)C)cc1 [6-a]; -0.2637

We now examine a further compound.
Identify measured log2FC (compound/DMSO) corresponding to Cc1ncsc1-c1ccc(CNC(=O)[C@@H]2C[C@@H](O)CN2C(=O)[C@@H](NC(=O)CCCCCCN2CCN(c3ccc(Nc4ncc(Cl)c(Nc5ccccc5C(N)=O)n4)cc3)CC2)C(C)(C)C)cc1 [6-d] -0.4722
